# credit: patent US20210087281A1

tested-target: native mouse MET on living cells (mouse, UniProt P16056 25-1379)
method-notes: cell-based or functional assay
scatter score 0-4, MLP29, 3.000 nM by entry:
Please respond with the number in score and leave the unit unwritten.

Examples from the recorded data:
76H10 chimeric llama-human IgG1 mAb (antibody, V domains shown, llama VH on human IgG1 CH1-CH2-CH3, llama VL on human lambda CL) VH: QLQLVESGGGLVQPGGSLRVSCTASGFTFNTYYMTWVRQAPGKGLEWVSDINSGGGTYYADSVKGRFTISRDNAKNTLYLQMNSLKPEDTALYYCVRVRIWPVGYDYWGQGTQVTVSS VL: QAVVTQEPSLSVSPGGTVTLTCGLSSGSVTTSNYPGWFQQTPGQAPRTLIYNTNNRHSGVPSRFSGSISGNKAALTITGAQPEDEADYYCSLYTGSYTTVFGGGTHLTVL : 2
71G3 chimeric llama-human IgG1 mAb (antibody, V domains shown, llama VH on human IgG1 CH1-CH2-CH3, llama VL on human lambda CL) VH: QVQLVESGGGLVQPGGSLRVSCAASGFTFSTYYMSWVRQAPGKGLEWVSDIRTDGGTYYADSVKGRFTMSRDNAKNTLYLQMNSLKPEDTALYYCARTRIFPSGYDYWGQGTQVTVSS VL: QAVVTQEPSLSVSPGGTVTLTCGLSSGSVTTSNYPGWFQQTPGQAPRTLIYNTNSRHSGVPSRFSGSISGNKAALTIMGAQPEDEADYYCSLYPGSTTVFGGGTHLTVL : 4
71A3 chimeric llama-human IgG1 mAb (antibody, V domains shown, llama VH on human IgG1 CH1-CH2-CH3, llama VL on human lambda CL) VH: EVQLVESGGGLVQPGGSLRLSCAASGFSFKDYDITWVRQAPGKGLEWVSTITSRSGSTSYVDSVKGRFTISGDNAKNTLYLQMNSLKPEDTAVYYCAKVYATTWDVGPLGYGMDYWGKGTLVTVSS VL: SYELTQPSALSVTLGQTAKITCQGGSLGSSYAHWYQQKPGQAPVLVIYDDDSRPSGIPERFSGSSSGGTATLTISGAQAEDEGDYYCQSADSSGNAAVFGGGTHLTVL : 4

With those in mind, consider the next binder.
Could you tell me which scatter score 0-4, MLP29, 3.000 nM is on file for 74C8 chimeric llama-human IgG1 mAb (antibody, V domains shown, llama VH on human IgG1 CH1-CH2-CH3, llama VL on human lambda CL) VH: EVQLVESGGGLVQPGGSLRLSCAASGFTFRNYHMSWVRQVPGKGFEWISDINSAGGSTYYADSVKGRFTISRDNAKNTLYLEMNSLKPEDTALYYCARVNVWGVNYWGKGTLVSVSS VL: QTVVTQEPSLSVSPGGTVTLTCGLSSGSVTTSNYPGWFQQTPGQAPRTLIYNTNSRHSGVPSRFSGSISGNKAALTITGAQPEDEADYYCSLYPGSYTNVFGGGTHLTVL ?
4
